Target: Glucocorticoid receptor (Homo sapiens)
Assay: qHTS assay to identify small molecule antagonists of the glucocorticoid receptor (GR) signaling pathway (AID 720692)
Settings: GR-bla HeLa, beta-lactamase FRET ratio, dexamethasone-stimulated, 18 h; series mostly up to 58.5 µM
Inconclusive results are not listed. Activity calls are given as the source filed them. Calls follow the shape of the dose curve; as a rule, active = well fitted inhibition curve with a large enough effect in the signal ratio in the repeat runs (not every such curve was filed as active); inconclusive = weak or mixed curves, or effect the other way; inactive = no such curve, though single readings can be large or run the other way; the % refers to the signal ratio.
Select the correct class. Options are true for active, false for inactive and nothing else.

[
  {
    "Compound": "O=C(O)CCCCCCCCCCCBr",
    "Classification": "false"
  },
  {
    "Compound": "OCCN1CCN(CCCN2c3ccccc3Sc3ccc(Cl)cc32)CC1",
    "Classification": "false"
  },
  {
    "Compound": "CC(CCC(=O)O)C(=O)O (stereo unspecified)",
    "Classification": "false"
  },
  {
    "Compound": "CCCCC(CC)COP(=O)(O)O (stereo unspecified)",
    "Classification": "true"
  },
  {
    "Compound": "CCC1(CO)COCOC1",
    "Classification": "false"
  }
]

Consider the additional compound presented here.
Q: Kindly provide the recorded test outcome for the following compound: "Cc1c(C)c2c(c(C)c1OC(=O)CCC(=O)OCCO)CC[C@@](C)(CCC[C@H](C)CCC[C@H](C)CCCC(C)C)O2"
Result: true
